Molecular target: T1, human ROR2 over-expressed on CHO cells (CHO-human ROR2) (human, UniProt Q01974 34-943)
T1 construct: whole, on cells; Negative control; also called family protein human ROR2
T1 sequence (Q01974 34-943): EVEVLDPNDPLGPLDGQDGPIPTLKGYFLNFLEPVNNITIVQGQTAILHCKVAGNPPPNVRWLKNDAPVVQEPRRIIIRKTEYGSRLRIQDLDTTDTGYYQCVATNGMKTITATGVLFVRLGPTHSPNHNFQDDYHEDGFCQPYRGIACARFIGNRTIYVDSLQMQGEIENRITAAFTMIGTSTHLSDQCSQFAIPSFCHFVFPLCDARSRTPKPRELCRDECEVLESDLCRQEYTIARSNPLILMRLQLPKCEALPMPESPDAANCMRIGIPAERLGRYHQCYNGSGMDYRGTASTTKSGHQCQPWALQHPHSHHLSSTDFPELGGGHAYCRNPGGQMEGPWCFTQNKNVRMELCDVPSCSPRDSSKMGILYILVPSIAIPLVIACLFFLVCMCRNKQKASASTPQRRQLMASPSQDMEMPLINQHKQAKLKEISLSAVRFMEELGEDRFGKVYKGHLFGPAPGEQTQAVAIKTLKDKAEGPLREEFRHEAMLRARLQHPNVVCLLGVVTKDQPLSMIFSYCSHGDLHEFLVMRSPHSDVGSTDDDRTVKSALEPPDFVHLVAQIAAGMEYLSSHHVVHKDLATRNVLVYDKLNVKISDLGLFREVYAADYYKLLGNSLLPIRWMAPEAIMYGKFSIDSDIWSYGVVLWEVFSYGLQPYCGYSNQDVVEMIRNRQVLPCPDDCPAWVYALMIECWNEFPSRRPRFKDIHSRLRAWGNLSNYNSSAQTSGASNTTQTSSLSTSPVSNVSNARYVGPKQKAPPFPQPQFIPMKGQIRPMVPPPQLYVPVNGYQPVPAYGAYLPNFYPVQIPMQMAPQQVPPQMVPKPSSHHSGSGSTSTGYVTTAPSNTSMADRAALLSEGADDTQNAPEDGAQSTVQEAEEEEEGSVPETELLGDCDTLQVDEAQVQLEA
Assay: flow cytometry on CHO-S cells transiently over-expressing human ROR2, FITC anti-human Fc detection, MFI ratio to 2nd Ab alone
PROPERTY_MEASURED: binding result

- BINDER: "anti-ROR1 IgG antibody C2E3 (antibody, V domains shown, Full IgG form (human IgG1 constant region, lambda light chain), expressed in CHO-S cells) VH: EVQLLESGGGLVQPGGSLRLSCAASGFTFSNYAMSWVRQAPGKGLEWVSSISHNSGSTYYADSVKGRFTISRDNSKNTLYLQMNSLRAEDTAVYYCAKFISARKSLGRSYSNGMDVWGQGTLVTVSS VL: QSVLTQPPSASGTPGQRVTISCTGSSSNIGSNDVTWYQQLPGTAPKLLIYADSKRPSGVPDRFSGSKSGTSASLAISGLRSEDEADYYCGTWDYSLSGYVFGGGTKLTVLG"
  PROPERTY_MEASURED: "binding result"
  RESULT: "no binding"
- BINDER: "anti-ROR1 IgG antibody DG6 (antibody, V domains shown, Full IgG form (human IgG1 constant region, lambda light chain), expressed in CHO-S cells) VH: EVQLLESGGGLVQPGGSLRLSCAASGFTFSDYDMSWVRQAPGKGLEWVSVISPDGGSIYYADSVKGRFTISRDNSKNTLYLQMNSLRAEDTAVYYCARDVVECNMNPCSYDNAMDVWGQGTLVTVSS VL: QSVLTQPPSASGTPGQRVTISCSGSSSNIGSNYVSWYQQLPGTAPKLLIYDDSHRPSGVPDRFSGSKSGTSASLAISGLRSEDEADYYCGAWDDSLSGYVFGGGTKLTVLG"
  PROPERTY_MEASURED: "binding result"
  RESULT: "no binding"
- BINDER: "anti-ROR1 IgG antibody A2F2 (antibody, V domains shown, Full IgG form (human IgG1 constant region, lambda light chain), expressed in CHO-S cells) VH: EVQLLESGGGLVQPGGSLRLSCAASGFTFSDYYMSWVRQAPGKGLEWVSSISPDGSNTYYADSVKGRFTISRDNSKNTLYLQMNSLRAEDTAVYYCAKNLRAFDYWGQGTLVTVSS VL: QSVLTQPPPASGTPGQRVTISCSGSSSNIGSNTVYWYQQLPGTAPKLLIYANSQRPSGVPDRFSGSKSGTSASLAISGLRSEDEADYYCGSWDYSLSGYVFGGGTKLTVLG"
  PROPERTY_MEASURED: "binding result"
  RESULT: "no binding"
- BINDER: "anti-ROR1 IgG antibody A2F3 (antibody, V domains shown, Full IgG form (human IgG1 constant region, lambda light chain), expressed in CHO-S cells) VH: EVQLLESGGGLVQPGGSLRLSCAASGFTFSSYDMSWVRQAPGKGLEWVSWISPGGGSKYYADSVKGRFTISRDNSKNTLYLQMNSLRAEDTAVYYCARVNGRFDYWGQGTLVTVSS VL: QSVLTQPPSASGTPGQRVTISCSGSSSNIGNNNVSWYQQLPGTAPKLLIYADSHRPSGVPDRFSGSKSGTSASLAISGLRSEDEADYYCATWDYSLSGYVFGGGTKLTVLG"
  PROPERTY_MEASURED: "binding result"
  RESULT: "no binding"

Provenance of the data: patent US20210069342A1
